target: IL-23 (human, p19/p40 heterodimer) (Homo sapiens, UniProt Q9NPF7;P29460 SEQ:20-189,SEQ:23-328); experiment: SPR; Biacore, IL-23 immobilized on CM3; HBS-P, 25 C; details: tags: R&D Systems, carrier free
Sequence (Q9NPF7 20-189, chain 1 of 2): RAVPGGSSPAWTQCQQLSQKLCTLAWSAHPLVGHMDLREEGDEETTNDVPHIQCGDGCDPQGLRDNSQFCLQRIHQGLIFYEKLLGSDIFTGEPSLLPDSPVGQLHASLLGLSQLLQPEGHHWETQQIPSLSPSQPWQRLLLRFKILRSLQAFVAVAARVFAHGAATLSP
Sequence (P29460 23-328, chain 2 of 2): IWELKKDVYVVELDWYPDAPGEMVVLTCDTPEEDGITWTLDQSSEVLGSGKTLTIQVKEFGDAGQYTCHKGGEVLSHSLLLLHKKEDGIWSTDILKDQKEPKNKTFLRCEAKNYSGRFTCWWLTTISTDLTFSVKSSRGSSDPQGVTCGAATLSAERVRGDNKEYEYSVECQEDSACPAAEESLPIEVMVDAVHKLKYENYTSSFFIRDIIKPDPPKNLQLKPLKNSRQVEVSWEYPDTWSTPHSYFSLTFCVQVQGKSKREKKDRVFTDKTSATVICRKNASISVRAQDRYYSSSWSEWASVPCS
Property measured: Kd

# Kd (binder: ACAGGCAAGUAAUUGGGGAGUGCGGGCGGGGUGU (mixed, ARC1623 with 5'-amine-linked 40 kDa PEG; 2'-deoxy, 2'-OMe, PS, 3'-idT) [ARC1988] ) is ~2 nM
